target: Serine/threonine-protein kinase 10 (Homo sapiens) (UniProt O94804); conditions: at 1 µM;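 further: reported value is the mean percent inhibition of LOK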
Sequence (O94804 whole entry, looked up): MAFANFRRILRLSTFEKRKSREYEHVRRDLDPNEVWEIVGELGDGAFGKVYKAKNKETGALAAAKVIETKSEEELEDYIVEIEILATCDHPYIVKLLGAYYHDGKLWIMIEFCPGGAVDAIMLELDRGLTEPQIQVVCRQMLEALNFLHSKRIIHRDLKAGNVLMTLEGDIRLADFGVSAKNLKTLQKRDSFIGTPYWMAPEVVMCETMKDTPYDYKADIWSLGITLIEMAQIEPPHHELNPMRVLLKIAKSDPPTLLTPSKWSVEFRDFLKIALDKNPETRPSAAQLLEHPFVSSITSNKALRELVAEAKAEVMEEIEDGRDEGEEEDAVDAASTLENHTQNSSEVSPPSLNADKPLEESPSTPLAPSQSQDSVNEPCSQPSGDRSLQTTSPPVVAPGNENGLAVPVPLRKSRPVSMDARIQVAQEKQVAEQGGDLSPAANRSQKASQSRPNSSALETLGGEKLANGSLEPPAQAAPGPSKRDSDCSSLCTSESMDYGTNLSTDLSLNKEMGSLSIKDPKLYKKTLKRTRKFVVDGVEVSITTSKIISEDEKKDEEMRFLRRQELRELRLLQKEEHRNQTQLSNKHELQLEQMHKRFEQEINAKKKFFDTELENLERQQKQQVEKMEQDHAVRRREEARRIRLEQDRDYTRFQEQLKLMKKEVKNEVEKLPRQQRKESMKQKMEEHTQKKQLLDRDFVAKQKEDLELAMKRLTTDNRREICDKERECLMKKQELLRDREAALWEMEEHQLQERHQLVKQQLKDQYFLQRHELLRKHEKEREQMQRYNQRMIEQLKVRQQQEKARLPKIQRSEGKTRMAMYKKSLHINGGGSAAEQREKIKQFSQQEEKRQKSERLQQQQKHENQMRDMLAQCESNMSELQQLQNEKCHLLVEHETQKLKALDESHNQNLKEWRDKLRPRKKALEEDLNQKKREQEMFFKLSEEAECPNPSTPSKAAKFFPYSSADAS
Measured Attribute: inhibition (%)

                                smiles_input  measured_attribute  quantitative_readout
 0  Fc1ccc(-c2nn3ncccc3c2-c2ccnc(Nc3ccc4c(c3)OCCO4)n2)cc1          inhibition                  41.8
 1  O=S(=O)(CCNCc1ccc(-c2ccc3ncnc(Nc4ccc(OCc5cccc(F)c5)c(Cl)c4)c3c2)o1)c1ccccc1          inhibition                  17.5
 2  CCn1c(-c2nonc2N)nc2c(C#CC(C)(C)O)nc(OC[C@H](N)c3ccccc3)cc21          inhibition                  28.8
 3  COc1ccc(-c2cc(-c3c[nH]nc3-c3ccccn3)ccn2)cc1          inhibition                  8.57
 4  Nc1ncc(-c2cccc(S(N)(=O)=O)c2)c2scc(-c3ccc(F)c(Cl)c3)c12          inhibition                  24.7
 5  COc1cc2c(cc1Nc1nc(Nc3ccsc3C(N)=O)c3cc[nH]c3n1)N(C(=O)CN(C)C)CCC2(C)C          inhibition                  17.3
 6  COC(=O)Nc1nc2ccc(Oc3ccc(NC(=O)Nc4cccc(Cl)c4)cc3)cc2[nH]1          inhibition                  27.1
 7  CCOc1ccc2c(-c3ccnc(Nc4cccc(C(F)(F)F)c4)n3)cnn2n1          inhibition                  12.9
 8  Fc1cccc(COc2ccc(Nc3ncnc4sc(-c5ccco5)cc34)cc2Cl)c1          inhibition                    15
 9  CNC(=O)c1cccc(C#Cc2cncnc2Nc2ccc(OCc3cccc(F)c3)c(Cl)c2)c1          inhibition                  4.51
10   NS(=O)(=O)c1ccc(Nc2ncc(-c3ccccc3)o2)cc1          inhibition                  11.7
11  O=C(O[C@H]1CN[C@H](C#Cc2cc3ncnc(Nc4ccc(Cc5ccccc5)cc4)c3s2)C1)N1CCOCC1          inhibition                  7.29
12  COc1ccc2c(-c3ccnc(Nc4cccc(OC(F)(F)F)c4)n3)cnn2n1          inhibition                  10.6
13  CS(=O)(=O)CCNCc1ccc(-c2ccc3ncnc(Nc4ccc(OCc5ccccc5)c(C(F)(F)F)c4)c3c2)o1          inhibition                  8.24
